In this section we review reported Mean : PE-A values for a set of binders.
- studyTarget: T1, CD3 on human T cells (H9 cells, ATCC HTB-176) (human)
- T1 construct: whole, on cells; The target is printed as 'human T cells'
- T1 sequence (P07766 23-207, chain 1 of 3): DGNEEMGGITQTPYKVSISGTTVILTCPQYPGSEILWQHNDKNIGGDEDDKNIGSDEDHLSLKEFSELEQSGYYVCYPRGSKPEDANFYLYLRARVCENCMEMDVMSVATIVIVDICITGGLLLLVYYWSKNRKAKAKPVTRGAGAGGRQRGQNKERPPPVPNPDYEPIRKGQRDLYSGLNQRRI
- T1 sequence (P04234 22-171, chain 2 of 3, further chain): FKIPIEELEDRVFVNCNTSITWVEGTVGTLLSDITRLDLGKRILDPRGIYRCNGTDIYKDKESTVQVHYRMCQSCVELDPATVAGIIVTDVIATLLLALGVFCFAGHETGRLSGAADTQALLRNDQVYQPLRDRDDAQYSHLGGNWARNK
- T1 sequence (P09693 23-182, chain 3 of 3, further chain): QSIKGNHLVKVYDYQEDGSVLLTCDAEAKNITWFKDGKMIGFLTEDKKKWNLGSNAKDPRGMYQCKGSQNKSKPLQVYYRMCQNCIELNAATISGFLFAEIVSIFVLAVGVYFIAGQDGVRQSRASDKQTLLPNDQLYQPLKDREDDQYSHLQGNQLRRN
- procedureDetails: flow cytometry on H9 cells, 1 µg antibody per 2x10^5 cells in 100 µl, PE anti-human IgG detection
propertyLabel: Mean : PE-A

binder | observedMeasurement
F15 (antibody, human IgG1, lambda, L234A L235A, V domains shown, humanized SP34 IgG1, lambda) VH: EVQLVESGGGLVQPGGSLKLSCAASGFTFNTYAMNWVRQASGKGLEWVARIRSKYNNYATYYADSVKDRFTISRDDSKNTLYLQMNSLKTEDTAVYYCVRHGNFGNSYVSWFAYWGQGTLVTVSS VL: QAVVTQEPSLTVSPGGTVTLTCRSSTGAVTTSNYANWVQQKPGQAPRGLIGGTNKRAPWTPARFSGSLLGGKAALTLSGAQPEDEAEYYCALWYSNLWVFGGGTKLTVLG | 11200
B07 (antibody, human IgG1, lambda, L234A L235A, V domains shown, humanized SP34 IgG1, lambda; also called B7) VH: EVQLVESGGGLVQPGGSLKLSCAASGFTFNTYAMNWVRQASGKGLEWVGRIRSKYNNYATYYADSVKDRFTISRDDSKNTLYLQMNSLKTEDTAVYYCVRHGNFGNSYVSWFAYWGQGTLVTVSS VL: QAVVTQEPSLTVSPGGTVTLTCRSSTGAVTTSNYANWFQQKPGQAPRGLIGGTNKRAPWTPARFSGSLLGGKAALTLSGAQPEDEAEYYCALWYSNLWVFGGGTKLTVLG | 4810
D16 (antibody, human IgG1, lambda, L234A L235A, V domains shown, humanized SP34 IgG1, lambda) VH: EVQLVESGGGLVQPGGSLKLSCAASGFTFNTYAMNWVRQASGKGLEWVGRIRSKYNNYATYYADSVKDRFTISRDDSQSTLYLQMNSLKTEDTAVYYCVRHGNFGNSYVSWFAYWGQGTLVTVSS VL: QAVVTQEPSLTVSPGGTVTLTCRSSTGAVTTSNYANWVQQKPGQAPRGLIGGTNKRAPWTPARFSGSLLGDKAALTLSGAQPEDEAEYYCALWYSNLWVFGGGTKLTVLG | 18300
D15 (antibody, human IgG1, lambda, L234A L235A, V domains shown, humanized SP34 IgG1, lambda) VH: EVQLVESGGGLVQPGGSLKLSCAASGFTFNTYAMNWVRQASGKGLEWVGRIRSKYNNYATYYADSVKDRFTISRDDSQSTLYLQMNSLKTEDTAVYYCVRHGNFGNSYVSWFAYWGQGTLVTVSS VL: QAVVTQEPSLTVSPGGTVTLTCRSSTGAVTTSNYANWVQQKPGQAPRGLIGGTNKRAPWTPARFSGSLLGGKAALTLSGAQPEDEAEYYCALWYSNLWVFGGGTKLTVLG | 22600
C15 (antibody, human IgG1, lambda, L234A L235A, V domains shown, humanized SP34 IgG1, lambda) VH: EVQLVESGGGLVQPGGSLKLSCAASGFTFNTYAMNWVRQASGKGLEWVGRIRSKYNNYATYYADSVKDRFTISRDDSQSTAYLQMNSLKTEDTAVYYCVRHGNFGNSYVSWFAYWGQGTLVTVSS VL: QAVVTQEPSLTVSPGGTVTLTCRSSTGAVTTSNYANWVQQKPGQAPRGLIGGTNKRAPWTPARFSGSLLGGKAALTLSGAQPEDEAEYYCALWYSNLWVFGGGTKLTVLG | 23100
